# System: HT-29
# test_description: NCI tumour cell line growth inhibition, 48 h
The source made the active and inactive calls. Cut-off read from the data, not from the text of the source: active = GI50 up to about 1.1 µM and inactive = higher.
endpoint_label: GI50

Below, 3 molecules whose answers are already recorded.
CCC1NC(=O)C(NC(=O)c2ncccc2O)C(C)OC(=O)C(c2ccccc2)NC(=O)C2CC(=O)CCN2C(=O)C(Cc2ccccc2)N(C)C(=O)C2CCCN2C1=O (configuration not stated) :: > 100 µM (inactive)
O=C(O)[C@H](Cc1ccccc1)NCCN1CCC[C@H]1C(=O)O :: 26.2 µM (inactive)
C\C(=N/N=C1/C(=C\N(C)C)C(=O)NC(=O)N1C)c1ccc(Cl)cc1 :: > 100 µM (inactive)

Quick one: GI50 of C=CCNC(=S)N/N=C1\C(=O)N(CN2CCOCC2)c2ccc([N+](=O)[O-])cc21 ?
23.2 µM (inactive)

Quick one: GI50 of N#Cc1cccc(/C=N/N/C(N)=N/O)c1 ?
45.5 µM (inactive)

Quick one: GI50 of CN(NC(=O)/C(=C/C=C/c1ccccc1)NC(=O)c1ccccc1)C1=C(Cl)C(=O)[N+](c2ccccc2)=CC1 ?
29.2 µM (inactive)

Quick one: GI50 of c1ccc(C(CCN2CC3CCC(CC3)C2)c2ccccc2)cc1 ?
13.9 µM (inactive)

----------
# Test system: SK-MEL-5
# test_description: NCI tumour cell line growth inhibition, 48 h
Active and inactive are the calls of the source. No stated cut-off is given here; in the data, active = GI50 up to about 1.1 µM and inactive = higher. Where a SMILES comes first, the peptide text is derived from it. The star is where a group is joined. Boc = CC(C)(C)OC(=O)*
endpoint_label: GI50

Below, 8 molecules whose answers are already recorded.
COC(=O)C(C)NC(=O)C(CCSC)NC(=O)C(Cc1ccccc1)NC(=O)OC(C)(C)C (stereo not drawn) (Boc-Phe-Met-Ala-OMe; configuration not given here) :: > 100 µM (inactive)
Nc1ccc(-c2nc3cc(F)ccc3s2)cc1I :: 21.7 µM (inactive)
CSc1cc(Cl)c(C)cc1S(=O)(=O)NC(=O)NNc1ccc(F)cc1 :: > 100 µM (inactive)
CN(C)/C=C/c1c2c(nc3ccccc13)C(=O)c1cccnc1C2=O :: 0.151 µM (active)
Cn1cnc([N+](=O)[O-])c1Sc1nccn1-c1cccc2ccccc12 :: 29.2 µM (inactive)
Cc1ccc(CC(Cc2ccc(C)cc2C(=O)O)C(=O)O)cc1 (stereo not drawn) :: > 100 µM (inactive)
NCCCCNCCCNC(=O)CNC(=O)CC(O)C(N)CCCC(NC(=O)C(CN)NC(=O)C(O)CNC(=O)CC(N)c1ccc(O)cc1)C(=O)O (stereo not drawn) :: > 10 µM (inactive)
Nc1ncnc2c1ncn2C1OC(CO)C(O)C1NS(=O)(=O)c1ccccc1 (stereo not drawn) :: > 100 µM (inactive)

Quick one: GI50 of c1ccc2sc(SCN(C3CCCCC3)C3CCCCC3)nc2c1 ?
> 100 µM (inactive)

----------
In this section we review reported GI50 values for a set of molecules.
# Tested on: CAKI-1
# test_description: NCI tumour cell line growth inhibition, 48 h
Calls of active or inactive are those of the source. No stated cut-off is given here; in the data, active = GI50 up to about 1.1 µM and inactive = higher.

CC1(C)C(CC(=O)O)CCCC1CC(=O)O (stereo not drawn) :: > 100 µM (inactive)
Nc1ncnc2c1ncn2C1OC(CO)C(O)C1NS(=O)(=O)c1ccccc1 (stereo not drawn) :: > 100 µM (inactive)
CC1=CC(=O)C(C(O)(C(F)(F)F)C(F)(F)F)C(C)(C)C1 (stereo not drawn) :: > 10 µM (inactive)
CCN1C(=O)/C(=C/Nc2ccccc2)S/C1=N/Nc1nc(-c2ccc(O)c(O)c2)cs1 :: 31.8 µM (inactive)
COc1ccc2c(c1)CC[C@@H]1[C@@H]2CC[C@]2(C)C(=O)/C(=C/c3ccc(C#N)cc3)C[C@@H]12 :: > 100 µM (inactive)
NC(Cc1ccc(N(CCCl)CCCl)cc1)C(=O)NC(CCC(=O)O)C(=O)O (stereo not drawn) :: > 100 µM (inactive)

Quick one: GI50 of CCOc1cc2c(cc1OC)c[n+](C)c1c3cc(OC)c(OC)cc3ccc21 ?
> 67.8 µM (inactive)

Quick one: GI50 of COC(=O)C1Cc2ccc(O)c(O)c2CN1 (stereo not drawn) ?
> 100 µM (inactive)

----------
# Tested on: NCI-H460
# test_description: NCI tumour cell line growth inhibition, 48 h
Active and inactive are the calls of the source. Cut-off read from the data, not from the text of the source: active = GI50 up to about 1.1 µM and inactive = higher.
Return exactly one item of active, inactive

COc1ccc2c(c1)CC1c3c(ccc(OC)c3O)CC2N1C (stereo unspecified) :: inactive
CC(=O)Nc1cc2cc(N)ccc2oc1=O :: inactive
CCC1OC2C(CC=C(C)C)=C3OC(C)(O)C(C)(CC)C(O)C3=C3OC(=O)C=C1C32 (stereo unspecified) :: inactive
COc1cc2c(c(OC)c1)C(=O)C(=O)C(CC1(C)OCCCO1)=C2 :: inactive

Call for entry CC(=O)NC1=C(NCc2ccc(Cl)cc2)C(=O)c2ccccc2C1=O :
inactive

Call for entry O=C1/C(=C(/Br)I)c2ccccc2-c2ccccc21 :
inactive

Call for entry O=C(O)Cc1cccc2c(=O)c3ccccc3oc12 :
inactive

Call for entry CCC1C(c2cc(OC)c(OC)c(OC)c2)c2cc3c(cc2OC1N1CCCC1)OCO3 (stereo unspecified) :
inactive

Call for entry CCOC(=O)C(=O)C(C#N)c1ccc(Cl)cc1 (stereo unspecified) :
inactive

Call for entry CC[N+](C)(CC)CC(C)(C)C(=O)/C=C/c1ccc(/C=C/C(=O)C(C)(C)C[N+](C)(CC)CC)cc1 :
inactive

Call for entry C#CCN1CCN(C(=S)N/N=C(\C)c2ccccn2)CC1 :
active

----------
# Test system: SN12C
# test_description: NCI tumour cell line growth inhibition, 48 h
Active and inactive are the calls of the source. Rule as the data show it: active = GI50 up to about 1.1 µM and inactive = higher.
In this section we review reported GI50 values for a set of compounds.

N=C(N)NS(=O)(=O)c1ccc(NCCc2c3ccccc3nc3ccccc23)cc1 :: > 100 µM (inactive)
O=C1OCC2C1C1c3ccccc3C(O)c3ccccc3C21 (centres undefined) :: > 100 µM (inactive)
N#Cc1c2nc3ccccc3nc2n2ccc3ccccc3c12 :: > 100 µM (inactive)
C#CCN1CCN(C(=S)N/N=C(\C)c2ccccn2)CC1 :: 0.232 µM (active)
CCOP(=O)(OCC)/C(C#N)=C/c1ccnc2ccccc12 :: 28.6 µM (inactive)
COC1(OC)C[C@H](C)[C@@]23O[C@]24c2cc(O)c5c(c2N[C@H]3C#C/C=C\C#C[C@]14O)C(=O)c1ccccc1C5=O :: 0.00136 µM (active)

Quick one: GI50 of N#CC(C(=N/NC(N)=S)/C(=N/NC(N)=S)C(C#N)c1ccc(Cl)cc1)c1ccc(Cl)cc1 (centres undefined) ?
> 100 µM (inactive)

Quick one: GI50 of CCSCCCSCCSCC ?
> 100 µM (inactive)

Quick one: GI50 of COC(=O)CC[N+]1([O-])CC1 ?
> 100 µM (inactive)

Quick one: GI50 of CCCCC(=O)Nc1ccc2cc(C(=O)OC)c(Cl)nc2n1 ?
50 µM (inactive)

Quick one: GI50 of CC(=O)OCc1ccc2oc(=O)c(C(=O)Oc3cccc(Cl)c3)cc2c1 ?
54.5 µM (inactive)

Quick one: GI50 of CCCCC(C)(C/C=C/[C@@H]1[C@@H](C(O)CCCCCC(=O)OC)C(=O)C[C@H]1O[Si](C)(C)C(C)(C)C)O[Si](C)(C)C (some centres undefined) ?
> 100 µM (inactive)

Quick one: GI50 of CCOC(=O)CC(=O)ON(C)C(C)=O ?
> 100 µM (inactive)

Quick one: GI50 of NC(=O)c1ccccc1NC(=O)C(=O)C(C(=O)c1ccc(Cl)c(Cl)c1)C1OC(=O)c2ccccc21 (centres undefined) ?
44.4 µM (inactive)

----------
# Tested on: A549
# test_description: NCI tumour cell line growth inhibition, 48 h
The source made the active and inactive calls. No stated cut-off is given here; in the data, active = GI50 up to about 1.1 µM and inactive = higher.
Return exactly one item of class 1 (active), class 0 (inactive)

Call for entry CC1=C(/C=C/C(C)=C/C=C/C(C)=C/C(=O)OCC2OC(n3cc(F)c(=O)[nH]c3=O)CC2OC(=O)/C=C(C)/C=C/C=C(C)/C=C/C2=C(C)CCCC2(C)C)C(C)(C)CCC1 (configuration not stated) :
class 1

Call for entry Brc1ccc2[nH]c3c(C4=NCCC4)nccc3c2c1 :
class 0

Call for entry COc1cc2c(c(OC)c1)C(=O)C(=O)C(CC1(C)OCCCO1)=C2 :
class 0

Call for entry COc1ccc(C(F)(F)F)cc1NC(=O)O/N=C(/Cl)C(C)C :
class 0

----------
# Tested on: HT-29
# test_description: NCI tumour cell line growth inhibition, 48 h
Calls of active or inactive are those of the source. Rule as the data show it: active = GI50 up to about 1.1 µM and inactive = higher.
In this section we review reported GI50 values for a set of compounds.

Below, 6 compounds whose answers are already recorded.
CN(NC(=O)c1cccs1)C1=NCCCCN1 :: > 100 µM (inactive)
CCC1C(c2cc(OC)c(OC)c(OC)c2)c2cc3c(cc2OC1N1CCCC1)OCO3 (stereo not given) :: 1.37 µM (inactive)
O=c1cc(O)c2c(O)cc(O)cc2o1 :: > 100 µM (inactive)
COC(=O)[C@]12CCC(C)(C)C[C@H]1C1=CC[C@@H]3[C@@]4(C)CC[C@H](OC5OC(CO)C(O)C(O)C5OC5OC(CO)C(O)C(O)C5O)C(C)(C)[C@@H]4CC[C@@]3(C)[C@]1(C)CC2 (stereo not given in full) :: 10.4 µM (inactive)
Nc1ccc(CCN2CCN(CCCc3ccccc3)CC2)cc1 :: 16.2 µM (inactive)
N[C@H](CCC(=O)NCP(=O)(O)O)C(=O)O :: > 100 µM (inactive)

Which GI50 is reported with HT-29 for this entry: COc1cccc(N2C(=O)CS(=O)(=O)C2c2cccc(Oc3ccccc3)c2)c1 (stereo not given) ?
13.1 µM (inactive)

Which GI50 is reported with HT-29 for this entry: Cc1ccc(S(=O)(=O)N/N=C/C(Br)=C(/Br)C(=O)O)cc1 ?
5.16 µM (inactive)

Which GI50 is reported with HT-29 for this entry: O=C(Nc1ccc(Cl)cc1)Oc1ccc(C(=S)Nc2ccc(Br)cc2)cc1 ?
2.19 µM (inactive)

Which GI50 is reported with HT-29 for this entry: Cc1cccc(Cl)c1NCC(O)CN1CCN(C)CC1 (stereo not given) ?
> 100 µM (inactive)

Which GI50 is reported with HT-29 for this entry: CCN(CC)CCN(C)CC(C)(C)C(=O)/C=C/c1ccccc1 ?
11.2 µM (inactive)

Which GI50 is reported with HT-29 for this entry: O=C(O)C1=NN=C(C(=O)O)NN1 ?
> 100 µM (inactive)

Which GI50 is reported with HT-29 for this entry: OC(Cc1cnnc2ccccc12)C(Cl)(Cl)Cl (stereo not given) ?
> 10 µM (inactive)

Which GI50 is reported with HT-29 for this entry: N=c1c2c(=S)n(-c3ccccc3)c(=S)n(-c3ccccc3)c2nc(SCCN2CCCC2)n1-c1ccccc1 ?
1.81 µM (inactive)

Which GI50 is reported with HT-29 for this entry: Nc1nc(Cl)cc(NCCCCCNc2cc(Cl)nc(N)n2)n1 ?
> 100 µM (inactive)
